Taken from patent US12686665B2.

target: recombinant human Lysyl Oxidase-Like 2 (LOXL2) (Homo sapiens); construct: purchased R&D systems; test: Amplex Red HRP-coupled amine oxidase assay, recombinant human LOXL2; assay type: biochemical; settings: 60 min incubation with enzyme at 37° C., putrescine substrate, read-out: Inhibitory activity (IC50, nM) human LOXL2
Counter-ions that a name gives are not always drawn.
ATTRIBUTE_MEASURED: IC50 (nM)
Hi! Could you send only the number? It should be in nM, unit omitted.

stdin: Param item = COC(=O)c1cc(-c2ccc(OC)c(S(=O)(=O)NC(C)C)c2)c2nnn(C/C(F)=C/CN)c2c1 [Example 121, hydrochloride] ; retrieve measured IC50.
stdout: 42.9

stdin: Param item = CCn1nccc1-c1cc(C#N)cc2c1ncn2C/C(F)=C/CN [Example 192, hydrochloride] ; retrieve measured IC50.
stdout: 137

stdin: Param item = CNS(=O)(=O)c1cccc(-c2cc(C(=O)OC)cc3c2nc(C)n3C/C(F)=C/CN)c1 [Example 73, hydrochloride] ; retrieve measured IC50.
stdout: 58

stdin: Param item = CS(=O)(=O)c1cccc(-c2cc(C(F)(F)F)cc3c2ncn3C/C(F)=C/CN)c1 [Example 13, hydrochloride] ; retrieve measured IC50.
stdout: 104

stdin: Param item = N#Cc1cc(-c2cncc(F)c2)c2nnn(C/C(F)=C/CN)c2c1 [Example 208, hydrochloride] ; retrieve measured IC50.
stdout: 270

stdin: Param item = NC/C=C(\F)Cn1nnc2c(-c3cnn(CCO)c3)cc(C(F)(F)F)cc21 [Example 205, hydrochloride] ; retrieve measured IC50.
stdout: 182

stdin: Param item = NC/C=C(\F)Cn1nnc2c(-c3cccc(S(=O)(=O)NC4CC4)c3)cccc21 [Example 110, hydrochloride] ; retrieve measured IC50.
stdout: 60

* * *

molecular target: recombinant human Lysyl Oxidase-Like 2 (LOXL2) (Homo sapiens, UniProt Q9Y4K0); construct: purchased R&D systems; experiment: Amplex Red HRP-coupled amine oxidase assay, recombinant human LOXL2; format: biochemical; details: 60 min incubation with enzyme at 37° C., putrescine substrate, read-out: Inhibitory activity (IC50, nM) human LOXL2
Sequence (Q9Y4K0 26-774): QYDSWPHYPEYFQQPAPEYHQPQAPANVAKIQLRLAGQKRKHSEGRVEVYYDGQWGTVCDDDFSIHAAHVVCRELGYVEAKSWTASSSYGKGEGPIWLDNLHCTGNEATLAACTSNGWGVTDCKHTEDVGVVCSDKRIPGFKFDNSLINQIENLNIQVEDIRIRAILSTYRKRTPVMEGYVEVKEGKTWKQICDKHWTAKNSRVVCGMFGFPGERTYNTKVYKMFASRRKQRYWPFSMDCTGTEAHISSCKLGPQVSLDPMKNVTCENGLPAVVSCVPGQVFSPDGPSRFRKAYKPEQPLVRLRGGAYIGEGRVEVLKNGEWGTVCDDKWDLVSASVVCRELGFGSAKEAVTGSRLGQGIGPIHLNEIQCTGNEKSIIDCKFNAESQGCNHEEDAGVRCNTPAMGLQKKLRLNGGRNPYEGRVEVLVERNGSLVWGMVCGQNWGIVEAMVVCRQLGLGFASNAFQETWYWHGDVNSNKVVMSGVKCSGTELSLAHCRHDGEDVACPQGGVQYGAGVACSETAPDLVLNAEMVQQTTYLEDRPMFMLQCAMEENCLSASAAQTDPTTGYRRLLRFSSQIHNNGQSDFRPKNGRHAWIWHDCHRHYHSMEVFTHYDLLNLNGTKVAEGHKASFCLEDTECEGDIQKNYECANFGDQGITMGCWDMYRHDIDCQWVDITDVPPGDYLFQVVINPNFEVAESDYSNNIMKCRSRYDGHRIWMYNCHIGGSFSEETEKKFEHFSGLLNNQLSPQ
Where a name gives a salt, the structure may show the parent alone.
// returns class 0 unless IC50 is strictly below 60 nM, in which case class 1

stdin: Below 60 nM on IC50? Entry CCc1nc2c(-c3cccc(S(=O)(=O)N(C)C)c3)cccc2n1C/C(F)=C/CN [Example 84, hydrochloride]
stdout: class 0

stdin: Below 60 nM on IC50? Entry NC/C=C(\F)Cn1cnc2c(-c3cccnc3)cc(C(F)(F)F)cc21 [Example 172, hydrochloride]
stdout: class 0

stdin: Below 60 nM on IC50? Entry NC/C=C(\F)Cn1cnc2c(-c3cnn(CCO)c3)cc(C(F)(F)F)cc21 [Example 180, hydrochloride]
stdout: class 0

stdin: Below 60 nM on IC50? Entry NC/C=C(\F)Cn1nnc2c(-c3cc(CO)ccc3F)cc(C(F)(F)F)cc21 [Example 198, hydrochloride]
stdout: class 0

stdin: Below 60 nM on IC50? Entry COc1ccc(S(=O)(=O)NC2CC2)cc1-c1cccc2c1nnn2C/C(F)=C/CN [Example 108, hydrochloride]
stdout: class 1

stdin: Below 60 nM on IC50? Entry N#Cc1cc(-c2cncnc2)c2nnn(C/C(F)=C/CN)c2c1 [Example 210, hydrochloride]
stdout: class 0

* * *

biological target: recombinant human Lysyl Oxidase-Like 2 (LOXL2) (Homo sapiens, UniProt Q9Y4K0); construct: purchased R&D systems; assay: Amplex Red HRP-coupled amine oxidase assay, recombinant human LOXL2; format: biochemical; conditions: 60 min incubation with enzyme at 37° C., putrescine substrate, read-out: Inhibitory activity (IC50, nM) human LOXL2
Counter-ions that a name gives are not always drawn.
ATTRIBUTE_MEASURED: IC50 (nM)
Hi! Could you send only the number? It should be in nM, unit omitted.

stdin: Param item = NC/C=C(\F)Cn1cnc2c(-c3cccc(S(=O)(=O)N4CCCC4)c3)cc(F)cc21 [Example 7, hydrochloride] ; retrieve measured IC50.
stdout: 35

stdin: Param item = Cc1nc2c(-c3cccc(S(=O)(=O)N4CCCC4)c3)cccc2n1C/C(F)=C/CN [Example 60, hydrochloride] ; retrieve measured IC50.
stdout: 92

stdin: Param item = CC(=O)c1ccc(F)c(-c2cc(C#N)cc3c2ncn3C/C(F)=C/CN)c1 [Example 184, hydrochloride] ; retrieve measured IC50.
stdout: 99

stdin: Param item = Cn1nccc1-c1cc(C(F)(F)F)cc2c1ncn2C/C(F)=C/CN [Example 176, hydrochloride] ; retrieve measured IC50.
stdout: 92.4

stdin: Param item = Cn1nccc1-c1cc(C#N)cc2c1ncn2C/C(F)=C/CN [Example 191, hydrochloride] ; retrieve measured IC50.
stdout: 95.5

stdin: Param item = CNS(=O)(=O)c1cccc(-c2cc(F)cc3c2ncn3C/C(F)=C/CN)c1 [Example 10, hydrochloride] ; retrieve measured IC50.
stdout: 22

stdin: Param item = CNS(=O)(=O)c1ccc(OC)c(-c2cc(C#N)cc3c2ncn3C/C(F)=C/CN)c1 [Example 183, hydrochloride] ; retrieve measured IC50.
stdout: 35.1

stdin: Param item = CNS(=O)(=O)c1cccc(-c2cccc3c2nc(C(F)(F)F)n3C/C(F)=C/CN)c1 [Example 53, hydrochloride] ; retrieve measured IC50.
stdout: 68

stdin: Param item = Cc1nc2c(-c3cccc(S(=O)(=O)N(C)C)c3)cc(C(=O)N(C)C)cc2n1C/C(F)=C/CN [Example 76, hydrochloride] ; retrieve measured IC50.
stdout: 58

stdin: Param item = N#Cc1cc(-c2cc(CO)ccc2F)c2nnn(C/C(F)=C/CN)c2c1 [Example 206, hydrochloride] ; retrieve measured IC50.
stdout: 200

stdin: Param item = CCn1nccc1-c1cc(C(F)(F)F)cc2c1ncn2C/C(F)=C/CN [Example 177, hydrochloride] ; retrieve measured IC50.
stdout: 419

stdin: Param item = CNS(=O)(=O)c1cccc(-c2cc(C(=O)OC)cc3c2nnn3C/C(F)=C/CN)c1 [Example 123, hydrochloride] ; retrieve measured IC50.
stdout: 12.6

stdin: Param item = COC(=O)c1cc(-c2cccc(S(=O)(=O)NCc3ccc(OC)cc3)c2)c2nnn(C/C(F)=C/CN)c2c1 [Example 125, hydrochloride] ; retrieve measured IC50.
stdout: 70.6

stdin: Param item = NC/C=C(\F)Cn1cnc2c(-c3cccc(S(=O)(=O)NC4CC4)c3)cc(F)cc21 [Example 9, hydrochloride] ; retrieve measured IC50.
stdout: 39

stdin: Param item = Cc1cc(-c2cc(C#N)cc3c2ncn3C/C(F)=C/CN)n(C)n1 [Example 194, hydrochloride] ; retrieve measured IC50.
stdout: 105

* * *

Would you mind telling me the reported IC50 of each entry?
Biological target: recombinant human DAO (diamine oxidase) (Homo sapiens, UniProt P19801)
Construct: purchased R&D systems
Sequence (P19801 20-751): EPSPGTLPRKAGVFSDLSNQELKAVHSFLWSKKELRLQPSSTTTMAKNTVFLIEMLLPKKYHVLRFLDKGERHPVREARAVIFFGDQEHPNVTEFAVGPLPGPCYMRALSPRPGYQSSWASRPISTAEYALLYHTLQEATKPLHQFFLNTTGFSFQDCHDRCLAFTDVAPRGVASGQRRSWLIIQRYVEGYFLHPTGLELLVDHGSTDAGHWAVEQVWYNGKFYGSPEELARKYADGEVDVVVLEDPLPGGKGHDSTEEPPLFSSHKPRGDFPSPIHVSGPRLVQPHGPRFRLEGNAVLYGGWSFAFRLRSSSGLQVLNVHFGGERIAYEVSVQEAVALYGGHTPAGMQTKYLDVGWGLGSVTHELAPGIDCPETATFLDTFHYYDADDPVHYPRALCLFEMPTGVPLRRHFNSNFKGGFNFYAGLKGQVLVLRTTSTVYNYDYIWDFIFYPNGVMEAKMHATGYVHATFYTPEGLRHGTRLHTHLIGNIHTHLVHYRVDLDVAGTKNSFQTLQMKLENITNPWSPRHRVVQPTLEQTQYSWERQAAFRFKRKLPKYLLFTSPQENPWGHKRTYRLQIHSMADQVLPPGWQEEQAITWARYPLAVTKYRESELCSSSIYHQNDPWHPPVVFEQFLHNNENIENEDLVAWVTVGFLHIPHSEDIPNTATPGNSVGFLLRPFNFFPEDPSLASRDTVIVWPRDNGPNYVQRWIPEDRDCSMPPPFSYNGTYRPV
Assay: Amplex Red HRP-coupled amine oxidase assay, recombinant human DAO
Format: biochemical
Settings: 1 mM putrescine substrate, read-out: Inhibitory activity (IC50, nM) DAO
Procedure: The activities of the compounds according to the present invention against recombinant human Lysyl Oxidase-Like 2 (recombinant human LOXL2, R&D systems) were evaluated by measuring the levels of hydrogen peroxide in the HRP (horseradish peroxidase) coupled reactions, with the Amplex Red Hydrogen Peroxide Assay Kit (Molecular Probes, Invitrogen, USA). […] Inhibition by each compound was measured as % reduction in signal, compared to the control without an inhibitor (diluted DMSO only). […]
Where a name gives a salt, the structure may show the parent alone.
Hi! Could you send only the number? It should be in nM, unit omitted.

stdin: Param item = CS(=O)(=O)c1cccc(-c2cc(F)cc3c2ncn3C/C(F)=C/CN)c1 [Example 3, hydrochloride] ; retrieve measured IC50.
stdout: 2940

stdin: Param item = N#Cc1cc(-c2cccc(CO)c2Cl)c2nnn(C/C(F)=C/CN)c2c1 [Example 207, hydrochloride] ; retrieve measured IC50.
stdout: 7440

stdin: Param item = CCS(=O)(=O)c1cccc(-c2cc(C(=O)OC)cc3c2ncn3C/C(F)=C/CN)c1 [Example 34, hydrochloride] ; retrieve measured IC50.
stdout: 495

stdin: Param item = NC/C=C(\F)Cn1cnc2c(-c3cncnc3)cc(C(F)(F)F)cc21 [Example 175, hydrochloride] ; retrieve measured IC50.
stdout: 2580

* * *

Target: recombinant human Lysyl Oxidase-Like 2 (LOXL2) (Homo sapiens, UniProt Q9Y4K0)
Construct: purchased R&D systems
Experiment: Amplex Red HRP-coupled amine oxidase assay, recombinant human LOXL2
Assay type: biochemical
Settings: 60 min incubation with enzyme at 37° C., putrescine substrate, read-out: Inhibitory activity (IC50, nM) human LOXL2
Experimental: The activities of the compounds according to the present invention against recombinant human Lysyl Oxidase-Like 2 (recombinant human LOXL2, R&D systems) were evaluated by measuring the levels of hydrogen peroxide in the HRP (horseradish peroxidase) coupled reactions, with the Amplex Red Hydrogen Peroxide Assay Kit (Molecular Probes, Invitrogen, USA). […] Inhibition by each compound was measured as % reduction in signal, compared to the control without an inhibitor (diluted DMSO only). […]
Counter-ions that a name gives are not always drawn.
// returns N unless IC50 is strictly below 80 nM, in which case Y

stdin: Below 80 nM on IC50? Entry CC(C)n1nccc1-c1cc(C(F)(F)F)cc2c1ncn2C/C(F)=C/CN [Example 178, hydrochloride]
stdout: N

stdin: Below 80 nM on IC50? Entry COC(=O)c1cc(-c2ccc(OC)c(S(=O)(=O)NC(C)C)c2)c2ncn(C/C(F)=C/CN)c2c1 [Example 28, hydrochloride]
stdout: Y

stdin: Below 80 nM on IC50? Entry COC(=O)c1cc(-c2cc(S(=O)(=O)NC3CC3)ccc2OC)c2ncn(C/C(F)=C/CN)c2c1 [Example 27, hydrochloride]
stdout: Y

stdin: Below 80 nM on IC50? Entry Cn1nccc1-c1cc(C#N)cc2c1nnn2C/C(F)=C/CN [Example 211, hydrochloride]
stdout: N

stdin: Below 80 nM on IC50? Entry COc1ccc(-c2cccc3c2nnn3C/C(F)=C/CN)cc1S(=O)(=O)N(C)C [Example 102, hydrochloride]
stdout: Y

stdin: Below 80 nM on IC50? Entry CON(C)C(=O)c1cc(-c2cccc(S(=O)(=O)N3CCCC3)c2)c2nnn(C/C(F)=C/CN)c2c1 [Example 137, hydrochloride]
stdout: Y

stdin: Below 80 nM on IC50? Entry COC(=O)c1cc(-c2cccc(S(=O)(=O)NC3CC3)c2)c2nnn(C/C(F)=C/CN)c2c1 [Example 122, hydrochloride]
stdout: Y

stdin: Below 80 nM on IC50? Entry N#Cc1cc(-c2cccc(CO)c2Cl)c2nnn(C/C(F)=C/CN)c2c1 [Example 207, hydrochloride]
stdout: N

stdin: Below 80 nM on IC50? Entry CNS(=O)(=O)c1cccc(-c2cccc3c2nnn3C/C(F)=C/CN)c1 [Example 111, hydrochloride]
stdout: Y

stdin: Below 80 nM on IC50? Entry Cn1nc(C(F)(F)F)cc1-c1cc(C#N)cc2c1ncn2C/C(F)=C/CN [Example 193, hydrochloride]
stdout: N

stdin: Below 80 nM on IC50? Entry N#Cc1cc(-c2cncc(Cl)c2)c2ncn(C/C(F)=C/CN)c2c1 [Example 189, hydrochloride]
stdout: N

stdin: Below 80 nM on IC50? Entry CNS(=O)(=O)c1ccc(OC)c(-c2cc(C(=O)OC)cc3c2ncn3C/C(F)=C/CN)c1 [Example 24, hydrochloride]
stdout: Y

stdin: Below 80 nM on IC50? Entry COC(=O)c1cc(-c2cccc(S(=O)(=O)N(C)C)c2)c2nc(C)n(C/C(F)=C/CN)c2c1 [Example 66, hydrochloride]
stdout: Y

stdin: Below 80 nM on IC50? Entry N#Cc1cc(-c2cc(CO)ccc2F)c2ncn(C/C(F)=C/CN)c2c1 [Example 185, hydrochloride]
stdout: N

stdin: Below 80 nM on IC50? Entry NC/C=C(\F)Cn1nnc2c(-c3cccc(S(=O)(=O)N4CCCC4)c3)cccc21 [Example 104, hydrochloride]
stdout: Y
